Biological target: Serine/threonine-protein kinase 17A (Homo sapiens) (UniProt Q9UEE5)
Sequence (Q9UEE5 whole entry): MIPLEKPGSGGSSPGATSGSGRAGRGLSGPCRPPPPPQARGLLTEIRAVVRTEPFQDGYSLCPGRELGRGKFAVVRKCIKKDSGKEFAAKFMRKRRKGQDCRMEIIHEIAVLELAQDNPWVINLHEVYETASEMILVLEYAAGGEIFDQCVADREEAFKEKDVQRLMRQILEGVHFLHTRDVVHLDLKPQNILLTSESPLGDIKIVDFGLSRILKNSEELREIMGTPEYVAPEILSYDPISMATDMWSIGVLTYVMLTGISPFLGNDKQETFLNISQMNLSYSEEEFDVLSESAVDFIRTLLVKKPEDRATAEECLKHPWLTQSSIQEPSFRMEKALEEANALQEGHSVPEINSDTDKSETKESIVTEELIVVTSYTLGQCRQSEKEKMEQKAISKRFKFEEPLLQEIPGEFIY
Settings: at 10 µM
Please respond with reported residual activity for every item in the list.
Answer format: numeric, % implied, no suffix.

Fill blank: measured residual activity of the compound `CCN(CC)CCNC(=O)c1c(C)[nH]c(/C=C2\C(=O)Nc3ccc(Cl)cc32)c1C` is ____.
2

Fill blank: measured residual activity of the compound `CCOC(=O)c1c(C)[nH]c(/C=C2\C(=O)Nc3ccccc32)c1C` is ____.
75

Fill blank: measured residual activity of the compound `COc1cc2nccc(Oc3ccc(NC(=S)NC(=O)c4ccccc4C)cc3)c2cc1OC` is ____.
92

Fill blank: measured residual activity of the compound `COc1ccc2c(c1)c(C1=C(c3c[nH]c4ccccc34)C(=O)NC1=O)cn2CCCN(C)C` is ____.
27

Fill blank: measured residual activity of the compound `O=C1C(Cl)=C(N2C(=O)CCC2=O)C(=O)c2ccccc21` is ____.
82

Fill blank: measured residual activity of the compound `O=C1NC(=O)C(c2cn(CCCO)c3ncccc23)=C1c1cnccn1` is ____.
67

Fill blank: measured residual activity of the compound `O=C(c1cc2cc(O)ccc2[nH]1)c1cc2cc(O)ccc2[nH]1` is ____.
2

Fill blank: measured residual activity of the compound `Nc1nc(Nc2ccc(S(N)(=O)=O)cc2)nn1C(=O)c1c(F)cccc1F` is ____.
47

Fill blank: measured residual activity of the compound `N#Cc1c(NC(=O)c2cccc3ccccc23)sc2c1CCCC2` is ____.
134
